System: TLX5 Mouse lymphona
PROCEDURE DETAILS: IC50 on tumor cell lines, MTT test, TLX5
Assay type: cell-based
CONDITIONS USED: TLX5, 3 days treatment, two separate experiments
pIC50: −log10 of the molar value.
Entries and their pIC50 values follow.

>  <COMPOUND>
C1N2CN3CN1CP(C2)C3.C=C(CC)C(=O)c1ccc(OCC(=O)OCCc2ccccc2)c(Cl)c1Cl.[Cl][Ru][Cl]

>  <pIC50>
5.37 to 5.44

$$$$
>  <COMPOUND>
N.N.[Cl][Pt][Cl] [Cisplatin]

>  <pIC50>
6.70 to 7.70

$$$$
